Molecular target: human BCRP (Homo sapiens, UniProt Q9UNQ0)
Construct: expressed in transfected cells; host or cells: MDCKII (Madin-Darby canine kidney) cells
Sequence (Q9UNQ0 1-655): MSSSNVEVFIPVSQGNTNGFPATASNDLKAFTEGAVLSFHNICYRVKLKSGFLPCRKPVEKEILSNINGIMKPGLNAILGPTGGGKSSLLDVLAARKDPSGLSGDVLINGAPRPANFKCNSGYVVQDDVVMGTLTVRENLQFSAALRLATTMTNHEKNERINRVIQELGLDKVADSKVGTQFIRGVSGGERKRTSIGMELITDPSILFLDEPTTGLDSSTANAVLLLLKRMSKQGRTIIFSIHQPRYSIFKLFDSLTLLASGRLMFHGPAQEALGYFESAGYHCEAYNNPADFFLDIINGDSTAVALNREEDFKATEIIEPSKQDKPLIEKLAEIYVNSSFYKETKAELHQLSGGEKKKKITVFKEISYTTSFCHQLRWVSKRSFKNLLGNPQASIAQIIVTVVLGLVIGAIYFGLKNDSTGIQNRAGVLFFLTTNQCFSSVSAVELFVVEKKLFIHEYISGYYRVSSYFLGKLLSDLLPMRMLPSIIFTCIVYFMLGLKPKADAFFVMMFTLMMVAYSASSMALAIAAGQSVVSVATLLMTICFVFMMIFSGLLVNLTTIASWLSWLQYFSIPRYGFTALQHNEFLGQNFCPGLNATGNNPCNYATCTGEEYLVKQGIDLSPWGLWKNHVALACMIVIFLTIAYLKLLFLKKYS
Test: MDCK assay BCRP: permeability across MDCK-BCRP monolayers
Type: in vitro ADME
Conditions: MDCK-BCRP monolayers, apical-to-basal, pH 7.4, 1 or 10 μM
Method: The MDCK assays provide information on the potential of a compound to pass the blood brain barrier. Permeability measurements across polarized, confluent MDCK-MDR1 cell monolayers grown on permeable filter supports are used as an in vitro absorption model: apparent permeability coefficients (PE) of the compounds across the MDCK-MDR1 cell monolayers are measured (pH 7.4, 37° C.) in apical-to-basal (AB) and basal-to-apical (BA) transport direction. […]
Reported Papp A→B values for the following compounds.
Value expressed in ×10⁻⁶ cm/s; do not type the unit.

- compound: "O=C(OCc1cccc(F)c1F)N1CCO[C@H](c2nc3cccnc3[nH]2)C1"
  targetUnderTest: "human BCRP (Homo sapiens, UniProt Q9UNQ0)"
  unitAnnotation: "×10⁻⁶ cm/s"
  Papp A→B: 33
- compound: "O=C(OCc1ccccc1)N1CCO[C@H](c2nc3cccnc3[nH]2)C1"
  targetUnderTest: "human BCRP (Homo sapiens, UniProt Q9UNQ0)"
  unitAnnotation: "×10⁻⁶ cm/s"
  Papp A→B: 37
- compound: "O=C(OCc1ccc(F)cc1F)N1CCO[C@H](c2nc3cccnc3[nH]2)C1"
  targetUnderTest: "human BCRP (Homo sapiens, UniProt Q9UNQ0)"
  unitAnnotation: "×10⁻⁶ cm/s"
  Papp A→B: 61
- compound: "Cc1ccc(COC(=O)N2CCO[C@H](c3nc4cc(F)cnc4[nH]3)C2)cc1"
  targetUnderTest: "human BCRP (Homo sapiens, UniProt Q9UNQ0)"
  unitAnnotation: "×10⁻⁶ cm/s"
  Papp A→B: 85
- compound: "Cc1cccc(F)c1COC(=O)N1CCO[C@H](c2nc3cccnc3[nH]2)C1"
  targetUnderTest: "human BCRP (Homo sapiens, UniProt Q9UNQ0)"
  unitAnnotation: "×10⁻⁶ cm/s"
  Papp A→B: 40

Which Papp A→B value is on record for Cc1ccccc1COC(=O)N1CCO[C@H](c2nc3cccnc3[nH]2)C1 ?
46

Next: O=C(OCc1ccc(Cl)cc1)N1CCO[C@H](c2nc3cccnc3[nH]2)C1
56

Next: O=C(OCc1ccc(F)cc1Cl)N1CCO[C@H](c2nc3cccnc3[nH]2)C1
72

Next: O=C(OCc1ccccc1F)N1CCO[C@H](c2nc3cccnc3[nH]2)C1
24

src = patent US10849907B2
